# melting point per record follows

# input Which melting point is listed for N#Cc1cccc(-c2nc(Nc3cnccn3)sc2-c2ccncn2)c1 ?
# output > 280 °C

# input Which melting point is listed for O=C1OCCC1C(=O)c1ccc(F)cc1[N+](=O)[O-] (stereo not given) ?
# output 87 to 89 °C

# input Which melting point is listed for CC1CC(=O)c2cc(N)c(F)cc2O1 (stereo not given) ?
# output 135 to 138 °C

# input Which melting point is listed for O=C(O)c1cn(C2CC2)c2c(F)c(N3CCNCC3)c(F)c(F)c2c1=O ?
# output 208 to 213 °C

# input Which melting point is listed for NC(=O)c1[nH]c2ccc(Cl)cc2c1S(=O)(=O)c1ccccc1 ?
# output 253 to 254 °C

---

# melting point per record follows

Example compounds with recorded melting point:
# input Which melting point is listed for O=C1c2ccccc2C(=O)c2c(NCCN3CCOCC3)ccc(NCCN3CCOCC3)c21 ?
# output 158 to 159 °C

# input Which melting point is listed for CCNC(=O)Nc1c(C(=O)c2ccccc2)[nH]c2cc(Cl)ccc12 ?
# output 222 to 235 °C

# input Which melting point is listed for Cc1cc(Cl)c(O)c(CN(C)C2CCCCCCC2)c1 ?
# output 101 °C

Continuing:
# input Which melting point is listed for CN1C(=O)CCC2CC(C3=NNC(=O)CC3CO)=CC=C21 (stereo not given) ?
# output 201 to 204 °C

# input Which melting point is listed for CCOC(=O)c1nc(-c2ccc(OC)cc2)sc1C ?
# output 65 to 66 °C

# input Which melting point is listed for O=C(c1cnc(N2CCCC2)c(OCC2CCCC2)n1)N1CCCCC1 ?
# output 61 to 62 °C

# input Which melting point is listed for Cc1ccc(-n2c(=O)n(OCc3ccccc3)c(=O)c3cc(F)c(Cl)nc32)cc1 ?
# output 218 to 219 °C

---

# melting point per record follows

Example molecules with recorded melting point:
# input Which melting point is listed for CCOC(=O)C1=CCCCC1S(=O)(=O)Nn1c(C)ccc1C (stereo not drawn) ?
# output 96 to 97 °C

# input Which melting point is listed for CC(=O)Nc1ccc(/C=C/C(=O)NCC(=O)N(C)c2ccc(Cl)c(CO)c2Cl)cn1 ?
# output 207 to 209 °C

# input Which melting point is listed for CCOc1c(SC(F)(F)F)c(C(N)=O)nn1-c1c(Cl)cc(C(F)(F)F)cc1Cl ?
# output 161 °C

# input Which melting point is listed for Cc1nc2c(OCc3c(Cl)ccc(N(C)C(=O)CN4C(=O)c5ccccc5C4=O)c3Cl)cccc2n1C ?
# output 226 to 227 °C

# input Which melting point is listed for O=C(O)C(=O)c1ccc(OCCOc2cc3ccccc3cc2O)cc1 ?
# output 191 to 192 °C

# input Which melting point is listed for CCCOC1(c2ccc(C)cc2C)N=C(c2ccc(C)cc2C)N=CN1 (stereo not drawn) ?
# output 86 to 88 °C

Continuing:
# input Which melting point is listed for COc1ccc(C(=O)Nc2ccc(F)c(F)c2)cc1NC(=S)Nc1cccc(C(=O)O)c1 ?
# output 221 to 222 °C

# input Which melting point is listed for Cc1cccc(C(NCC(=O)Nc2c(C(C)C)cccc2C(C)C)c2ccccc2)c1 (stereo not drawn) ?
# output 119 to 120 °C

# input Which melting point is listed for CCN1CCC(=O)N(c2cc(Cl)ccc2C)C1=S ?
# output 142 to 145 °C

# input Which melting point is listed for CC(C)C(C)CCC(C)C1CCC2C3CCC4CC(OC(=O)c5ccccc5)CCC4(C)C3CCC12C (stereo not drawn) ?
# output 232 to 234 °C

# input Which melting point is listed for Cc1cccc(NC(=O)OCC2CCCCN2C)c1 (stereo not drawn) ?
# output 73.5 to 75.5 °C

# input Which melting point is listed for CCCCCCCCCCc1c(C(=O)O)sc2c1sc1c(CCCCCCCCCC)c(C(=O)O)sc12 ?
# output 280 °C

# input Which melting point is listed for Cc1nc2c(OCc3c(Cl)ccc(S(=O)(=O)N4CCC[C@H]4C(=O)NCc4ccc(C=NN)cc4)c3Cl)cccn2c1Br ?
# output 124 °C

# input Which melting point is listed for CC(C)Cc1ccccc1-n1c(=O)[nH]c2c(C(N)=O)nc(-c3cccc(O)c3)nc21 ?
# output > 260 °C

# input Which melting point is listed for Brc1c(NC2=NCCN2)ccc2ncn(CC3CCCCC3)c12 ?
# output 153 to 155 °C

# input Which melting point is listed for O=C(O)COc1c(-c2cccc(Cl)c2)cc(C(=O)NCCCCCCc2ccccc2)cc1-c1cccc(Cl)c1 ?
# output 178 to 181 °C
